Test system: biotinyl-Trp-oxazolone
Experiment: self-aminoacylation, catalytic enhancement (BWO) (fold over background); higher = more active; k-Seq, kA / k0A0; sequences stand for … in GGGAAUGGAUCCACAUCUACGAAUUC…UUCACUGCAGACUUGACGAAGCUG
This sample holds only a part of the variants without activity.
measurement_label: self-aminoacylation

# count of solved cases: 4
- construct_sequence: "AUUACCGUGAUCAUCGAGUGA [Fam2.1 aminoacylation ribozyme variant]"
  self-aminoacylation: 10.5
- construct_sequence: "AUUACCCUAGGUCAUCGGGUG [Fam2.2 aminoacylation ribozyme variant]"
  self-aminoacylation: 8.1
- construct_sequence: "AUGCACCUAGGUCAUCGGGAG [Fam2.2 aminoacylation ribozyme variant]"
  self-aminoacylation: 1.94
- construct_sequence: "AUUCACCAAGCUCAUCGGGUG [Fam2.2 aminoacylation ribozyme variant]"
  self-aminoacylation: 1.79

// next item, self-aminoacylation requested
Value of measured self-aminoacylation for the entry AUUACCUUGGUCAUCGAGUGA [Fam2.1 aminoacylation ribozyme variant] : 8.16

###

Test system: biotinyl-Met-oxazolone
Experiment: self-aminoacylation, catalytic enhancement (BMO) (fold over background); higher = more active; k-Seq, kA / k0A0; sequences stand for … in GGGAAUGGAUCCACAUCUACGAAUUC…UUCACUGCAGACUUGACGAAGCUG
Fewer inactive variants are shown than the library holds.
Measured self-aminoacylation, listed per entry for reference.
Form field (numeric): enter value without unit.

- construct_sequence: "AUGACUCUGGUCAUCGAGUGA [Fam2.1 aminoacylation ribozyme variant]"
  self-aminoacylation: 4.86
- construct_sequence: "UUUCAGCUAGGUCAUCGGGUG [Fam2.2 aminoacylation ribozyme variant]"
  self-aminoacylation: 5.9
- construct_sequence: "AUUCACAUACGUCAUCGGGUG [Fam2.2 aminoacylation ribozyme variant]"
  self-aminoacylation: 7.22
- construct_sequence: "AUUCACCGAGGUCAUCGGGAG [Fam2.2 aminoacylation ribozyme variant]"
  self-aminoacylation: 2.23
- construct_sequence: "AUUACCCAGGUCAUCGAGUGC [Fam2.1 aminoacylation ribozyme variant]"
  self-aminoacylation: 0.643

Measured self-aminoacylation (biotinyl-Met-oxazolone), entry CUAGUUCAAACAAUCGCUCUG [Fam1A.1 aminoacylation ribozyme variant] : 0.827

biotinyl-Met-oxazolone self-aminoacylation of CUACUUCAAACUAUCGGUCUU [Fam1A.1 aminoacylation ribozyme variant] is 0.833

// self-aminoacylation (biotinyl-Met-oxazolone) for AUUCACCAAGGUCAUCGGCUG [Fam2.2 aminoacylation ribozyme variant] = 2.21

Summary: AUUACCUUGGUCAUCGAGUUA [Fam2.1 aminoacylation ribozyme variant] , biotinyl-Met-oxazolone, self-aminoacylation = 1.19

###

Quick reference: self-aminoacylation of the listed items.
Tested on: biotinyl-Val-oxazolone
Test: self-aminoacylation, catalytic enhancement (BVO) (fold over background); higher = more active; k-Seq, kA / k0A0; sequences stand for … in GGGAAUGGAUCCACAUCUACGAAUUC…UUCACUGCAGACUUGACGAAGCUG
This sample holds only a part of the variants without activity.
Please reply with the number alone, leaving off any unit.

- construct_sequence: "AUUAAUCUGGUCAUCGAGUGA [Fam2.1 aminoacylation ribozyme variant]"
  self-aminoacylation: 2.88

// sample CUACACUUCAAGCAAUGGGUC [Fam1B.1 aminoacylation ribozyme variant] , its self-aminoacylation was 0.536

AUUACGCUGGUCAUCGAGUGA [Fam2.1 aminoacylation ribozyme variant] yielded self-aminoacylation of 3.23

self-aminoacylation reported for this sequence CCACAGUUCAAGCAGUCGGUC [Fam1B.1 aminoacylation ribozyme variant] : 1.2
